# test: Caco-2 membrane permeability, improved method as used in the following Examples (96-well, 20 to 24 h preincubation)
# Type: in vitro ADME
# condition_description: human, Caco-2, Caco-2
Positions of bridges follow the written chain, without caps; N, C: chain ends. Non-standard residues stand in square brackets, D forms with d. Residues, ends and D or L forms follow the SMILES beside them. ξ: configuration not given here. *: point of attachment. hPhe(3-Cl) = N[C@@H](CCc1cccc(Cl)c1)C(=O)O; Gly(NCH2CH2Ph) = O=C(O)CNCCc1ccccc1; Hyp = O=C(O)[C@@H]1C[C@@H](O)CN1; NMeF = CN[C@@H](Cc1ccccc1)C(=O)O; NMeI = CC[C@H](C)[C@H](NC)C(=O)O; NMeL = CN[C@@H](CC(C)C)C(=O)O; NMeV = CN[C@H](C(=O)O)C(C)C; NMeAbu = CC[C@H](NC)C(=O)O; Piperidide = C1CCN(*)CC1; Bn = c1ccc(C*)cc1; ξS = NC(CO)C(=O)O; Sar = CNCC(=O)O; tBu = CC(C)(C)*
assay_endpoint: Papp A→B at 180 min (×10⁻⁶ cm/s)

• CCO[C@@H]1C[C@H]2C(=O)N[C@@H](COC(C)(C)C)C(=O)N(C)[C@@H](CC(C)C)C(=O)N(C)[C@@H](CC(C)C)C(=O)N3CCC[C@H]3C(=O)N[C@@H]([C@@H](C)O)C(=O)N(C)[C@@H](Cc3ccccc3)C(=O)N[C@@H](Cc3ccccc3)C(=O)N(C)[C@@H](CC(C)C)C(=O)N[C@H](C(=O)N3CCCCC3)CC(=O)N[C@H](CC(C)C)C(=O)N2C1 [pd378] ([dL][Hyp](Et)S(tBu)[NMeL][NMeL]PT[NMeF]F[NMeL]D-Piperidide; lactam N-11) = 1.2
• CC[C@H](C)[C@@H]1NC(=O)[C@H](CC(C)C)N(C)C(=O)CN(C)C(=O)C[C@@H](C(=O)N2CCCCC2)NC(=O)[C@H](CC(C)C)N(C)C(=O)[C@@H](COC(C)(C)C)NC(=O)[C@H](CC)N(C)C(=O)[C@H](Cc2ccccc2)N(C)C(=O)CN(CCc2ccccc2)C(=O)[C@H]([C@@H](C)O)NC(=O)[C@H](CC)N(C)C1=O [pd411] ([Sar][NMeL]I[NMeAbu]T[Gly(NCH2CH2Ph)][NMeF][NMeAbu][dS](tBu)[NMeL]D-Piperidide; lactam N-11) = 3.3
• CC[C@H](C)[C@@H]1NC(=O)[C@H](Cc2ccccc2)N(C)C(=O)CN(C)C(=O)C[C@@H](C(=O)N2CCCCC2)NC(=O)[C@H]([C@@H](C)CC)N(C)C(=O)C(COCc2ccccc2)NC(=O)[C@H](CC(C)C)N(C)C(=O)[C@H](Cc2ccccc2)N(C)C(=O)CN(C)C(=O)[C@H]([C@@H](C)O)NC(=O)[C@H](CC(C)C)N(C)C1=O (stereo partly drawn) [pd370] ([Sar][NMeF]I[NMeL]T[Sar][NMeF][NMeL][ξS](Bn)[NMeI]D-Piperidide; lactam N-11) = 2.5
• CC(C)C[C@H]1C(=O)N[C@@H](CCc2cccc(Cl)c2)C(=O)N(C)[C@@H](CC(C)C)C(=O)N[C@@H]([C@@H](C)O)C(=O)N(C)CC(=O)N(C)[C@@H](Cc2ccccc2)C(=O)N(C)[C@@H](CC(C)C)C(=O)N[C@@H](COC(C)(C)C)C(=O)N(C)[C@@H](C(C)C)C(=O)N[C@H](C(=O)N2CCCCC2)CC(=O)N(C)CC(=O)N1C [pd357] ([Sar][NMeL][hPhe(3-Cl)][NMeL]T[Sar][NMeF][NMeL]S(tBu)[NMeV]D-Piperidide; lactam N-11) = 1.3
